# tested-system: T1, human TREM2 expressed on cells (human, UniProt Q9NZC2 19-230)
# T1 construct: BW5147.G.1.4 cells stably expressing human TREM2 together with Dap12, or endogenous TREM2 of primary human myeloid cells; also called huT2 BW; hTREM2 expressing cell line
# T1 sequence: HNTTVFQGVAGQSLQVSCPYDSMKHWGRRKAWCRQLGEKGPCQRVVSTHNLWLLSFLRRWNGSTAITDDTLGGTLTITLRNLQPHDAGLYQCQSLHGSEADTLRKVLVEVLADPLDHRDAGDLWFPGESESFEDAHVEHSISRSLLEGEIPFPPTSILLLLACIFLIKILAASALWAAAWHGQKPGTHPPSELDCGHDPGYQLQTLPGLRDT
# test-description: FACS, hTREM2 BW cells
Entries and their Kd
Just the number in nM, nothing appended.

Known results for binders:
[
  {
    "binder": "AL2p-13 (antibody, V domains shown, Fab and IgG formats under one id; also called AL22-13) VH: QVQLVQSGAEVKKPGSSVKVSCKASGYAFSSHWMNWVRQAPGQGLEWMGRIYPGDGDTNYAQKFKGRVTITADESTSTAYMELSSLRSEDTAVYYCARLLRNQPGESYAMDYWGQGTLVTVSS VL: GVVMTQTPLSLSVTPGQPASISCRSSQSLIHSNGYTYLHWYLQKPGQSPQLLIYKVSNRRSGVPDRFSGSGSGTDFTLKISRVEAEDVGVYYCSQSTRVPYTFGQGTKLEIK",
    "unit-info": "nM",
    "Kd": 1.5
  },
  {
    "binder": "AL2p-44 (antibody, IgG1, V domains shown, Fab and IgG formats under one id) VH: QVQLVQSGAEVKKPGSSVKVSCKASGYAFSSHWMNWVRQAPGQGLEWMGRIYPGGGDTNYARKFRGRVTITADESTSTAYMELSSLRSEDTAVYYCARLLRNQPGASYAMDYWGQGTLVTVSS VL: GVVMTQTPLSLSVTPGQPASISCRTSRSLVHSNRYTYLHWYLQKPGQSPQLLIYKVSNRRSGVPDRFSGSGSGTDFTLKISRVEAEDVGVYYCSQSTRVPYTFGQGTKLEIK",
    "unit-info": "nM",
    "Kd": 4.18
  },
  {
    "binder": "AL2p-47 (antibody, V domains shown, Fab and IgG formats under one id (explicit huIgG1 is m97); also called AL2-47) VH: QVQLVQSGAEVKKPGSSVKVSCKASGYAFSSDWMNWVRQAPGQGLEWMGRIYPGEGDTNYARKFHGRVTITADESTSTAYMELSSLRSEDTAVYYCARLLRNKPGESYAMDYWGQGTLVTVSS VL: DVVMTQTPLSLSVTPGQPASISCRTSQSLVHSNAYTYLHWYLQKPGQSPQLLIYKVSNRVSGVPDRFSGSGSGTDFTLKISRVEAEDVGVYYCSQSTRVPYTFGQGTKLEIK",
    "unit-info": "nM",
    "Kd": 1.09
  },
  {
    "binder": "AL2p-17 (antibody, V domains shown, Fab and IgG formats under one id) VH: QVQLVQSGAEVKKPGSSVKVSCKASGYAFSSHWMNWVRQAPGQGLEWMGRIYPGDGDTNYAQKRQGRVTITADESTSTAYMELSSLRSEDTAVYYCARLLRNQPGESYAMDYWGQGTLVTVSS VL: DVVMTQTPLSLSVTPGQPASISCRSSRSLVHSNGYTYLHWYLQKPGQSPQLLIYKVSNRVSGVPDRFSGSGSGTDFTLKISRVEAEDVGVYYCSQSTRVPYTFGQGTKLEIK",
    "unit-info": "nM",
    "Kd": 1.4
  },
  {
    "binder": "AL2p-14 (antibody, V domains shown, Fab and IgG formats under one id) VH: QVQLVQSGAEVKKPGSSVKVSCKASGYAFSSHWMNWVRQAPGQGLEWMGRIYPGDGDTNYAQKFQGRVTITADESTSTAYMELSSLRSEDTAVYYCARLLRNQPGESYAMDYWGQGTLVTVSS VL: GVVMTQTPLSLSVTPGQPASISCRSSRSLVHSNGYTYLHWYLQKPGQSPQLLIYKVSNRFSGVPDRFSGSGSGTDFTLKISRVEAEDVGVYYCSQSTRVPYTFGQGTKLEIK",
    "unit-info": "nM",
    "Kd": 2.1
  },
  {
    "binder": "AL2p-57 (antibody, V domains shown, Fab and IgG formats under one id) VH: EVQLVQSGAEVKKPGSSVKVSCKASGYAFSSHWMNWVRQAPGQGLEWMGRIYPGEGDTNYAQKFHGRVTITADESTSTAYMELSSLRSEDTAVYYCARLLRNKPGESYAMDYWGQGTLVTVSS VL: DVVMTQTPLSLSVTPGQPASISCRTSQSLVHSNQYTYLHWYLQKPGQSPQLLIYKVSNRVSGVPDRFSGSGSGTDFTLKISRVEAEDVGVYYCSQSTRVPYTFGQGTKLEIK",
    "unit-info": "nM",
    "Kd": 1.83
  },
  {
    "binder": "AL2p-30 (antibody, V domains shown, Fab and IgG formats under one id) VH: QVQLVQSGAEVKKPGSSVKVSCKASGYAFSSQWMNWVRQAPGQGLEWMGRIYPGDGDTNYAWKFQGRVTITADESTSTAYMELSSLRSEDTAVYYCARLLRNQPGESYAMDYWGQGTLVTVSS VL: GVVMTQTPLSLSVTPGQPASISCRSSSSLVHSNGYTYLHWYLQKPGQSPQLLIYKVSNRKSGVPDRFSGSGSGTDFTLKISRVEAEDVGVYYCSQSTRVPYTFGQGTKLEIK",
    "unit-info": "nM",
    "Kd": 1.2
  },
  {
    "binder": "AL2p-23 (antibody, V domains shown, Fab and IgG formats under one id) VH: QVQLVQSGAEVKKPGSSVKVSCKASGYAFSSHWMNWVRQAPGQGLEWMGRIYPGDGQTNYAQKRQGRVTITADESTSTAYMELSSLRSEDTAVYYCARLLRNQPGESYAMDYWGQGTLVTVSS VL: GVVMTQTPLSLSVTPGQPASISCRTSQSLVHSNGYTYLHWYLQKPGQSPQLLIYKVSNRVSGVPDRFSGSGSGTDFTLKISRVEAEDVGVYYCSQSTRVPYTFGQGTKLEIK",
    "unit-info": "nM",
    "Kd": 1.2
  }
]

Query: Write down Kd measured for item AL2p-21 (antibody, V domains shown, Fab and IgG formats under one id) VH: QVQLVQSGAEVKKPGSSVKVSCKASGYAFSSHWMNWVRQAPGQGLEWMGRIYPGDGDTNYAWKFQGRVTITADESTSTAYMELSSLRSEDTAVYYCARLLRNQPGESYAMDYWGQGTLVTVSS VL: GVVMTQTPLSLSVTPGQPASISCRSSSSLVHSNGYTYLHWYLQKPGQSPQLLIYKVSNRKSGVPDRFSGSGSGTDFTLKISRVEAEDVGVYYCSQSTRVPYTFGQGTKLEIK
Response: 1.5

Query: Write down Kd measured for item AL2p-46 (antibody, V domains shown, Fab and IgG formats under one id) VH: QVQLVQSGAEVKKPGSSVKVSCKASGYAFSSDWMNWVRQAPGQGLEWMGRIYPGEGDTNYARKFQGRVTITADESTSTAYMELSSLRSEDTAVYYCARLLRNKPGESYAMDYWGQGTLVTVSS VL: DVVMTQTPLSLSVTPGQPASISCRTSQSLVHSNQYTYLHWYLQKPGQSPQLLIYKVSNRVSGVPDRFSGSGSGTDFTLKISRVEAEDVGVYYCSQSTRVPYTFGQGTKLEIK
Response: 1.33

Origin of measurements: patent US20200317776A1
